meta.source: BindingDB's records for patent US20250248973

- EXPERIMENTAL_TARGET: Isoform 3 of Cannabinoid receptor 1 (Human, UniProt P21554)
- Sequence (P21554 as listed by the source): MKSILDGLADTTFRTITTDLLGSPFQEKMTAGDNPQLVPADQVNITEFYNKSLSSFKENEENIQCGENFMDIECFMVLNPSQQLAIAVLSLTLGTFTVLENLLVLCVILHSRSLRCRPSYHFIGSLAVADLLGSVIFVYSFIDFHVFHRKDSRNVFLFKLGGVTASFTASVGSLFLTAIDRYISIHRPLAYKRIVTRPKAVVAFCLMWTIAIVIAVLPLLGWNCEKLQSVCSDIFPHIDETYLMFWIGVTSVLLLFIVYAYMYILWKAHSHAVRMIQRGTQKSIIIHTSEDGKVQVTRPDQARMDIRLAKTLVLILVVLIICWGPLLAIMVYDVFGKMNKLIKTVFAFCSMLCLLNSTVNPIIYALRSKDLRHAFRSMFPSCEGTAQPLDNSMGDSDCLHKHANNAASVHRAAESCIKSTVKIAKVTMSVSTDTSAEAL
- MEASUREMENT_PROTOCOL: Biochemical Assay
MEASUREMENT_TYPE: IC50

Q: # get_value(readout='IC50', item= C#Cc1cccc(S(=O)(=O)N=C(NCCS(N)(=O)=O)N2C[C@H](c3ccccc3)C(c3ccc(Cl)cc3)=N2)c1 [US20250248973, Compound 35] )
A: < 100 nM
